- System: RARa:RXR (NR concentration 270 nM, RXRa partner concentration 90 nM)
- protocol.details: PBM binding z-score (relative to random genomic background probes); higher = stronger binding; sequences stand for … in GC…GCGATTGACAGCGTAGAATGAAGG
property.name: PBM binding z-score

1. TCATATAGGTAAACAGGTGAAGGTCCGTAAGTTA ... 0.898
2. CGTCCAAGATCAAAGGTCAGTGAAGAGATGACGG ... 5.06
3. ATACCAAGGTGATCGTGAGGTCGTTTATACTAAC ... 2.19
4. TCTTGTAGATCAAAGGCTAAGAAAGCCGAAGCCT ... 0.0326
5. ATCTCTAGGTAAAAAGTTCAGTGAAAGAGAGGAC ... 1.33
6. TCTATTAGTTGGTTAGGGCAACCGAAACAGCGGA ... 0.342
7. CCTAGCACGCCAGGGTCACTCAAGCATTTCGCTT ... 2.55
8. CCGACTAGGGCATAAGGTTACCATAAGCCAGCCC ... 1.7
9. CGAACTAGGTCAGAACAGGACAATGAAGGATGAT ... 0.703
10. GCTTACGGGTCAAAGGTTATAGCTTGAATAGAAT ... 7.89
11. CGAACTTGGTCAAGGACAGTGAATCTCCGCACGC ... -0.377
12. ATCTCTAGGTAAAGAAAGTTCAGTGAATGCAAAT ... 1.42
